# TARGET DESC: KRAS G12V (Homo sapiens, UniProt P01116, G12V)
# Sequence (P01116 1-188 isoform P01116-2 G12V): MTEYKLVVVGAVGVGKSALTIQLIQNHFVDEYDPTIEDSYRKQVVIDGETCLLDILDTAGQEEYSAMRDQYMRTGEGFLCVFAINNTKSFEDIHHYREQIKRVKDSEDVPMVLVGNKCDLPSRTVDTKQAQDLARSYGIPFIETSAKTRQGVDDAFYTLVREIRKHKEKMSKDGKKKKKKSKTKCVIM
# ASSAY SUMMARY: GDP-GTP exchange assay, KRAS G12V (bodipy-GDP/GppNHp, SOS1)
# TEST CONTEXT: bodipy-loaded KRAS G12V 2.5 nM, 3 hours pre-incubation with inhibitor, SOS1 150 nM, GppNHp 500 uM; read-out: G12V_exchange (KRAS_G12V exchange assay IC50)
pIC50: −log10 of the molar value.
PROPERTY LABEL: pIC50

Fill in the blank: the reported pIC50 of CN(C)C1CN(c2nc3c(F)c(-c4cc(O)cc5ccccc45)c(CCC#N)cc3c3c2NC(=O)CN3C2C3CNC2C3)C1 (single isomer, unassigned) [Example 13a] is ____.
≥ 7.00

Would you mind doing C[C@@H](CN(C)C)Oc1nc2c(F)c(-c3cc(O)cc4ccccc34)c(CCC#N)cc2c2c1NC(=O)CN2C1C2CNC1C2 (single isomer, unassigned) [Example 11a] as well?
5.00 to 5.30

Would you mind doing N#CCCc1cc2c3c(cnc2c(F)c1-c1cc(O)cc2ccccc12)N(CC(N)=O)C(=O)CN3C1C2CNC1C2 (single isomer, unassigned) [Example 19a] as well?
6.00 to 7.00
